Test system: ACHN
METHOD NOTES: NCI tumour cell line growth inhibition, 48 h
Active and inactive are the calls of the source. No stated cut-off is given here; in the data, active = GI50 up to about 1.1 µM and inactive = higher.
REPORTED PROPERTY: GI50

Below: 5 compounds and their reported GI50.
CC(=O)OC(C)(C)[C@@H]1CC[C@]2(C)/C=C/[C@H](C)C[C@@H](O)C3=C(C)C[C@@H](O3)C12 (some centres not stated) = > 100 µM (inactive)
CC(=O)NC1C(OCc2ccccc2)OC(CO)C(O)C1OCC(=O)NC(C)C(=O)NC(CCC(=O)NCCCCNc1ccc([N+](=O)[O-])c2[nH]c3ccccc3c(=O)c12)C(N)=O (configuration not stated) = 48.9 µM (inactive)
CC(=O)N1N=C(c2c(O)ccc3ccccc23)CC1c1ccc(Cl)cc1 (configuration not stated) = 25.5 µM (inactive)
O=c1c2cc(Br)cc(Br)c2nc(CCCl)n1-c1ccc(O)c([N+](=O)[O-])c1 = 19.7 µM (inactive)
COc1ccc(C2CC(=O)CC(c3ccc(OC)cc3)C23C(=O)NC(=S)NC3=O)cc1 (configuration not stated) = > 100 µM (inactive)

The recorded GI50 for O=C(CC(=O)c1ccccc1NC1=Cc2ccccc2C(=O)C1=O)C(=O)NC1=C(Cl)C(=O)c2ccccc2C1=O is 3.56 µM (inactive)

Lab book: GI50 of CC(NNC(=O)c1cc[n+]([BH2-]C#N)cc1)C(F)(F)F (configuration not stated) noted as > 100 µM (inactive)
